- test system: MMP-13 (Homo sapiens, UniProt P45452)
measure: IC50 (µM)
Return type: number; implicit unit µM.

Below are worked cases with known answers.
With MMP-13 (Homo sapiens, UniProt P45452) as the test system, O=C(O)CCCCCCCOc1ccc(CC(=O)Nc2ccc3c(c2)C(=O)N(Cc2ccccc2)C3=O)cc1 [Compound 14h] showed IC50 of 1.67

Field IC50 (system: MMP-13 (Homo sapiens, UniProt P45452)) for entry O=C(O)CCCOc1ccc(CC(=O)Nc2ccc3c(c2)C(=O)N(Cc2ccc(F)cc2)C3=O)cc1 [Compound 14l] = 0.361

Sample O=C(O)CCCCCCOc1ccc(CC(=O)Nc2ccc3c(c2)C(=O)N(Cc2ccccc2)C3=O)cc1 [Compound 14g] , system: MMP-13 (Homo sapiens, UniProt P45452). Its IC50 is 0.15

// below: IC50 requested for another compound
Known value: MMP-13 (Homo sapiens, UniProt P45452) IC50 of the compound O=C(O)CCCCCCCCCOc1ccc(CC(=O)Nc2ccc3c(c2)C(=O)N(Cc2ccccc2)C3=O)cc1 [Compound 14j] equals 7.12

----------
Below is a list of entries, each paired with its recorded activity at 10 µM value.
- test system: MMP-13 (Homo sapiens)
- assay text: MMP-13 FRET peptide enzyme assay (single dose 10 μM and IC50)
- Type: biochemical
- condition: remaining enzyme activity at 10 μM inhibitor concentration, measured in duplicate
State the answer as a number, implicitly in %.

Entry O=C(O)CCCCCCCOc1ccc(CC(=O)Nc2ccc3c(c2)C(=O)N(Cc2ccccc2)C3=O)cc1 [Compound 14h] ; activity at 10 µM = 16

// activity at 10 µM lookup, compound = O=C(O)CCCCCCOc1ccc(CC(=O)Nc2ccc3c(c2)C(=O)N(Cc2ccccc2)C3=O)cc1 [Compound 14g] , result: 1

Record O=C(O)COc1ccc(CC(=O)Nc2ccc3c(c2)C(=O)N(Cc2ccccc2)C3=O)cc1 [Compound 14b] . Reported activity at 10 µM: 58.7

GET /value?item= CN1C(=O)c2ccc(NC(=O)Cc3ccc(OCCCCC(=O)O)cc3)cc2C1=O [Compound 14a] &field=activity at 10 µM returns 23.7

The measured activity at 10 µM associated with O=C(O)CCCCCCCOc1ccc(CC(=O)Nc2ccc3c(c2)C(=O)N(Cc2ccc(F)cc2)C3=O)cc1 [Compound 14o] reads 34.6

Now turn to the next compound.
Entry O=C(O)CCCOc1ccc(CC(=O)Nc2ccc3c(c2)C(=O)N(Cc2ccc(F)cc2)C3=O)cc1 [Compound 14l] ; activity at 10 µM = 3.6

----------
# IC50 per record follows
- test system: MMP-7 (Homo sapiens)
- Sequence (P09237 95-267): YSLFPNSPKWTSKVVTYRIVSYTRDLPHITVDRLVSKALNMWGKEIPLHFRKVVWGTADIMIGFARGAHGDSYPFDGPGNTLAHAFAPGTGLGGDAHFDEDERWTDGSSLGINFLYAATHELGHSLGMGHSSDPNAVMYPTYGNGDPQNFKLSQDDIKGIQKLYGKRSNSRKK
- assay text: MMP-7 FRET peptide enzyme assay (single dose 10 μM and IC50)
- condition: IC50 MMP-7, measured in duplicate
Your answer should be a plain number; it is taken to be in µM.

Note to self: IC50 recorded for O=C(O)CCCCCCCCCOc1ccc(CC(=O)Nc2ccc3c(c2)C(=O)N(Cc2ccccc2)C3=O)cc1 [Compound 14j] was 6.2

Documented IC50 of O=C(O)CCCCCCCOc1ccc(CC(=O)Nc2ccc3c(c2)C(=O)N(Cc2ccccc2)C3=O)cc1 [Compound 14h] : 3.18

Values were extracted from paper PMC6151531.
